# Test system: Plasmodium falciparum Sir2 (PF13_0152, Sir2A)
# ASSAY METHOD TEXT: pfSir2 binders on small-molecule microarrays, primary screen, biochemical, small-molecule microarray, 635 nm fluorescence (AID 1098);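 also: score merges spot fluorescence intensity with its signal-to-noise ratio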
# TEST CONDITIONS: small-molecule microarray binding, fluorescence 635 nm; higher = more signal
Everything with composite z-score lower than 0.9 is class 0; everything else, including exactly 0.9, is class 1.

Threshold query (composite z-score >= 0.9) on COCCOC(=O)N1C(=O)[C@@]2(c3cc(C#CC4(O)CCCCCC4)ccc31)[C@H](c1ccc(O)cc1)N1[C@H](c3ccccc3)[C@H](c3ccccc3)OC(=O)[C@H]1[C@@H]2C(=O)Nc1nc2ccccc2s1 class 0

Threshold query (composite z-score >= 0.9) on COc1ccc(C(O)C2C=CC3C(=O)N(c4ccccc4)C(=O)C3N2Nc2ccccc2F)cc1OCc1ccccc1 (centres undefined) class 1

Threshold query (composite z-score >= 0.9) on CCN(CC)c1ccc(N2CC=CC34O[C@@H]5/C=C\CCC(C)OC(=O)C5[C@H]3C(=O)N(C(CO)C(C)C)[C@@H]4C2=O)cc1 (some centres undefined) class 0

Threshold query (composite z-score >= 0.9) on [N-]=[N+]=Nc1ccccc1[C@H]1OC(c2ccc(OCCCO)cc2)=N[C@@]1(Cc1ccccc1)C(=O)O class 1

Threshold query (composite z-score >= 0.9) on CCCC[C@@H]1C[C@H]1[C@@H](NC(=O)c1ccco1)c1ccc(Cl)cc1 class 0

Threshold query (composite z-score >= 0.9) on [N-]=[N+]=Nc1ccccc1C[C@]1(C(=O)NCC(O)CO)N=C(c2ccc(OCCCO)cc2)O[C@H]1c1ccccc1N=[N+]=[N-] (some centres undefined) class 0

Threshold query (composite z-score >= 0.9) on C=C(COC)/C(=C/C[C@H](OC(=O)c1ccncc1)c1ccc(OCCO)cc1)c1cnc2ccccc2c1 class 1

Threshold query (composite z-score >= 0.9) on COc1ccc(C(O)C2C=CC3C(=O)NC(=O)C3N2Nc2ccccn2)c2ccccc12 (centres undefined) class 0

Threshold query (composite z-score >= 0.9) on COc1ccc(C(O)C2C=CC3C(=O)NC(=O)C3N2Nc2ccccn2)cc1 (centres undefined) class 1

Threshold query (composite z-score >= 0.9) on COC(=O)[C@@]1(Cc2ccc(OC)cc2)[C@H]2c3cc(C(=O)N4CCCC4)n(Cc4ccc(OC)c(OC)c4)c3C[C@H]2CN1C(=O)c1ccccc1 class 1

Further cases:
Threshold query (composite z-score >= 0.9) on CO[C@H]1O[C@H](CO)[C@@H](OC(=O)Nc2ccc(Br)cc2)[C@H](OC(=O)c2cc3ccccc3[nH]2)[C@H]1OC(=O)c1cc2ccccc2[nH]1 class 1

Threshold query (composite z-score >= 0.9) on COc1ccc(C(=O)O[C@H]2CC[C@]3(C)C4=C(CCC3C2(C)C)[C@]2(C)CC[C@H]([C@H](C)CCCC(C)C)[C@@]2(C)CC4)cc1 (some centres undefined) class 0

Threshold query (composite z-score >= 0.9) on CCOC(=O)C[C@H]1[C@H](OC(=O)Cc2ccc3c(c2)OCO3)[C@@H](NC(=O)c2ccc(-c3ccccc3)cc2)c2cc(OCCCO)ccc2N1C(=O)c1ccc2ccccc2n1 class 0

Threshold query (composite z-score >= 0.9) on O=C1O[C@H](c2ccccc2)[C@H](c2ccccc2)N2[C@H]1[C@@H](C(=O)O)[C@]1(C(=O)Nc3ccc(C#CCCO)cc31)[C@H]2c1ccc(O)cc1 class 0

Threshold query (composite z-score >= 0.9) on COC(=O)c1c(CC[C@@H](CO)NC(=O)N[C@H](Cn2cc(Cc3ccccc3)nn2)C(C)C)oc(C(C)=O)c1C(=O)OC class 0

Threshold query (composite z-score >= 0.9) on CCCC=C(CCC)[C@@H](NC(=O)Oc1ccc(F)cc1)c1ccc(C(=O)OC)cc1 class 0

Threshold query (composite z-score >= 0.9) on CCOC(=O)C1=CCC(c2ccc(C)cc2)N(S(=O)(=O)c2ccc(C)cc2)C1 (centres undefined) class 0

Threshold query (composite z-score >= 0.9) on COc1ccc([Si](C)(C)[C@H]2[C@H](CC(=O)N3CCC[C@H]3CO)O[C@@]3(C(=O)N(Cc4cccc(N5C(=O)c6cccc7cccc5c67)c4)c4ccccc43)[C@@H]2C)cc1 class 1

Threshold query (composite z-score >= 0.9) on O=C1OCC=C[C@H]2OC34C=CCN(c5ccc6ccccc6c5)C(=O)[C@H]3N(CCCCCCO)C(=O)[C@@H]4[C@@H]12 (some centres undefined) class 1

Threshold query (composite z-score >= 0.9) on CN(C)C(=O)[C@]1(Cc2ccccc2CN=[N+]=[N-])N=C(c2ccc(OCCCO)cc2)O[C@@H]1c1ccccc1CN=[N+]=[N-] class 0

Threshold query (composite z-score >= 0.9) on CCCCc1cn(C[C@H](Cc2ccccc2)NC(=O)N[C@H](CO)CCc2oc(C(C)=O)c(C(=O)OC)c2C(=O)OC)nn1 class 0

Threshold query (composite z-score >= 0.9) on CCCC[C@H]1OB(O)C[C@H]2C1=C(COc1ccccc1)C[C@H]1C(=O)N(C)C(=O)[C@H]12 class 0

Threshold query (composite z-score >= 0.9) on O=C(NCc1ccc(F)cc1)[C@H]1C[C@H]2C(=O)N[C@@H](Cc3ccccc3)C(=O)N2[C@H]1c1ccc(O)cc1 class 1

Threshold query (composite z-score >= 0.9) on COc1ccc([Si](C)(C)[C@@H]2[C@@H](CCO)O[C@]3(C(=O)N(Cc4ccc(N5C(=O)COc6ccccc65)cc4)c4ccccc43)[C@H]2C)cc1 class 1

Threshold query (composite z-score >= 0.9) on C[N+](C)(C)CCCCNC(=O)[C@H]1C[C@H]2C(=O)N[C@@H](Cc3ccccc3)C(=O)N2[C@H]1c1ccc(O)cc1 class 0

Threshold query (composite z-score >= 0.9) on C=C(C)C1C(=C)CN([C@H](CO)c2ccccc2)C1=O (some centres undefined) class 1

Threshold query (composite z-score >= 0.9) on O=C1O[C@@H](c2ccccc2)[C@@H](c2ccccc2)N2[C@@H](c3ccccc3OCCO)[C@]3(C(=O)Nc4ccc(C#CC5=CCCCC5)cc43)[C@@H](C(=O)Nc3nc4ccccc4s3)[C@H]12 class 1

----------
# ASSAY METHOD TEXT: basal RPMI8226 mitochondrial membrane potential changes, profiling panel, cell-based, JC-1 fluorescence, 24 h, 100 nL compound (AID 1169); also: test concentration not given here
# TEST CONDITIONS: RPMI8226 myeloma, JC-1 mitochondrial potential fluorescence, higher = more signal
READOUT NAME: z-score
Numbers only.

Identify z-score associated with the compound CC(C)C(=C=CC[C@@H](O)c1ccccc1OCCO)CCO 0.719

Identify z-score associated with the compound O=C1c2ccccc2[C@@]2(Cc3ccccc3N(CCN3CCOCC3)C2=O)[C@H](c2ccc(CO)cc2)N1Cc1ccccc1 -0.605

Identify z-score associated with the compound CCCCCCC#C[Si](O[C@H](c1ccccc1)c1cn([C@H](CO)Cc2ccccc2)nn1)(C(C)C)C(C)C -0.229

Provide each entry's z-score from the list below.
1. C=CCOC(=O)[C@H]1[C@@H]2C(=O)O[C@@H](c3ccccc3)[C@@H](c3ccccc3)N2[C@@H](c2ccc(OCCOC(=O)[C@H]3C[C@H]4C(=O)N5CCC[C@H]5C(=O)N4[C@H]3c3ccc(O)cc3)cc2)[C@]12C(=O)Nc1ccccc12
2. COCCOC(=O)N1C(=O)[C@@]2(c3cc(C#Cc4ccc(OC)cc4)ccc31)[C@H](C(N)=O)[C@H]1C(=O)O[C@H](c3ccccc3)[C@H](c3ccccc3)N1[C@@H]2c1ccccc1OCCO

-0.515
-0.994

Identify z-score associated with the compound COCCOC(=O)N1C(=O)[C@@]2(c3cc(C#CCCO)ccc31)[C@H](C(=O)N1CCN(c3ncccn3)CC1)[C@H]1C(=O)O[C@H](c3ccccc3)[C@H](c3ccccc3)N1[C@@H]2c1ccccc1OCCO -0.324

----------
# STUDY SYSTEM: Neurogenic locus notch homolog protein 3 (Homo sapiens) (UniProt Q9UM47)
# Sequence (Q9UM47 whole entry, looked up): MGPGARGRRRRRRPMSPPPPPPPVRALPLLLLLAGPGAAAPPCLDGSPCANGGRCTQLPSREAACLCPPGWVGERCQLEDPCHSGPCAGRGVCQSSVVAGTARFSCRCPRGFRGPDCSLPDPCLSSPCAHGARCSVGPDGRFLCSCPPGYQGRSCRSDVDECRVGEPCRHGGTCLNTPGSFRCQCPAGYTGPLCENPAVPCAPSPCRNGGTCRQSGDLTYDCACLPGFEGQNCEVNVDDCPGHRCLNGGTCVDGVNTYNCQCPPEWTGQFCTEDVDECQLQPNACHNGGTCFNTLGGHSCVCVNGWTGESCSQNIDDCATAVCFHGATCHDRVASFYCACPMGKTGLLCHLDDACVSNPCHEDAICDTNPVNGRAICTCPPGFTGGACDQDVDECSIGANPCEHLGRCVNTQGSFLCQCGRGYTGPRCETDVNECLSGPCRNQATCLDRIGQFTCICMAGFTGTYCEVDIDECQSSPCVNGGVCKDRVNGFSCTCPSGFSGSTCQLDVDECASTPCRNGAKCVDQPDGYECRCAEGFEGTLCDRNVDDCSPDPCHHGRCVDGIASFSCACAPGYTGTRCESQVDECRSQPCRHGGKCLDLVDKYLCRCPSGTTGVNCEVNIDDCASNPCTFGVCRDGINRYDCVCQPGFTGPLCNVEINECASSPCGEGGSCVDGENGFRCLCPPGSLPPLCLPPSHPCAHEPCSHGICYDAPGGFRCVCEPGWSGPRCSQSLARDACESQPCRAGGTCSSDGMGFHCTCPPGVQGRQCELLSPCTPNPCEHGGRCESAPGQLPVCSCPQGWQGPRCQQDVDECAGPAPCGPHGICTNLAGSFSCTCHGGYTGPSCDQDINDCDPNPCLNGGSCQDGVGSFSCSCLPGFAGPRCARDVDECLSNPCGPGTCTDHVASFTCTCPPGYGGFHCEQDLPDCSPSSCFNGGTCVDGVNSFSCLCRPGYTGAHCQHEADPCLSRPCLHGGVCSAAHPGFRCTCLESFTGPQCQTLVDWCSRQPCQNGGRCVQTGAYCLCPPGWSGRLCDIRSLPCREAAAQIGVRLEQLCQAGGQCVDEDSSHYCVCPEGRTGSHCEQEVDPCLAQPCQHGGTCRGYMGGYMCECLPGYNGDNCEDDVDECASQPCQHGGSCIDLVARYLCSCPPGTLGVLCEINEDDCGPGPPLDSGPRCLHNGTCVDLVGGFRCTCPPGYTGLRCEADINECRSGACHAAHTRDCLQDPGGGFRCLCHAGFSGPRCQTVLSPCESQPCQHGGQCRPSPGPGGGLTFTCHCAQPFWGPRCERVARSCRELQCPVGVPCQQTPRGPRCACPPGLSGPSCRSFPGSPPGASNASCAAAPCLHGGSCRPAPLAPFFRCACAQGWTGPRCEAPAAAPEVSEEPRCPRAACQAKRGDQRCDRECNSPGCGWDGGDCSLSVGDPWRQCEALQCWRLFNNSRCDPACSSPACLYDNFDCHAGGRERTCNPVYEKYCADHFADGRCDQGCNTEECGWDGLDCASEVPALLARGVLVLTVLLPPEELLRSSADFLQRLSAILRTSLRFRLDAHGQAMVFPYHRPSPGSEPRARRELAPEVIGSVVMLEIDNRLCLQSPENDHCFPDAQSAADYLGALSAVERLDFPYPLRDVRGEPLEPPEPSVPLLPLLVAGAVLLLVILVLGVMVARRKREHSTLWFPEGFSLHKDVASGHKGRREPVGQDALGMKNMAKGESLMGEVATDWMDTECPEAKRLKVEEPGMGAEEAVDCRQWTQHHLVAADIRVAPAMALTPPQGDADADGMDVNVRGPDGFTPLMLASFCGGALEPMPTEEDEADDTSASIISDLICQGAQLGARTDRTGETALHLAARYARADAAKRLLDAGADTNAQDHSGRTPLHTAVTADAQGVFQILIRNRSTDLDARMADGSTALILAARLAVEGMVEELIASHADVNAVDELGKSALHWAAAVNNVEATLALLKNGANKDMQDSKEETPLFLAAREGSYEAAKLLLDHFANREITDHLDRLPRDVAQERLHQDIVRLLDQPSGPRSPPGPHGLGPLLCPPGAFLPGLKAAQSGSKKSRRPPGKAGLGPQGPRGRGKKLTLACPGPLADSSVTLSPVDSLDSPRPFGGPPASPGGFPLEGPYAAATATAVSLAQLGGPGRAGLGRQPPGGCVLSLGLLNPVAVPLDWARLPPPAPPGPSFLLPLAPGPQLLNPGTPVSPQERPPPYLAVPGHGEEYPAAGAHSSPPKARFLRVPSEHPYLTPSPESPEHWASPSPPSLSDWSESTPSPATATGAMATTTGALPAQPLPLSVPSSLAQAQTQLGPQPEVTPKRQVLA
# ASSAY METHOD TEXT: NOTCH3 binders on small-molecule microarray, primary screen, biochemical, 635/667 nm fluorescence (AID 1096)
# TEST CONDITIONS: NOTCH3 binding, 635 nm fluorescence, higher = more signal
Could you please report measured composite z-score for the items listed next?

Identify composite z-score associated with the compound COC(=O)[C@@]1(Cc2ccc(F)cc2)[C@H]2c3cc(C(=O)N(C)C)n(CC4CC4)c3C[C@H]2CN1C(=O)c1ccccc1 1.06

Identify composite z-score associated with the compound COc1ccc(CCNC(=O)[C@@]2(Sc3ccc(C)cc3)CC(=O)N(C3CCCCC3)[C@@H]2c2ccc(CO)cc2I)cc1 1.1

Identify composite z-score associated with the compound CCOc1cc(C(O)C2C=CC3C(=O)N(c4ccccc4)C(=O)C3N2Nc2ccccc2)ccc1O (stereo not drawn) 0.498

Identify composite z-score associated with the compound O=C1NCC(=O)N2[C@@H]1C[C@@H](C(=O)O)[C@H]2c1cccc(OCCO)c1 1.03

Provide each entry's composite z-score from the list below.
1. CN1C(=O)C2C=CC(C(O)c3ccc(I)cc3)N(N3CCCCC3)C2C1=O (stereo not drawn)
2. C#CCN(CC1=CCCCC1)[C@H](c1ccccc1Br)[C@@H](O)Cc1ccccc1
3. C=CCNC(=O)[C@H]1[C@@H]2C(=O)O[C@@H](c3ccccc3)[C@@H](c3ccccc3)N2[C@@H](c2ccccc2OCCO)[C@]12C(=O)Nc1ccc(C#CC3=CCCCC3)cc12
4. CCC(CC)C(O)C1C=CC2C(=O)N(C)C(=O)C2N1Nc1ccccc1 (stereo not drawn)

1: 1.04; 2: -0.721; 3: 1.1; 4: 1.06
